# system under test: HLA-A*01:01 (Homo sapiens, UniProt P04439, A114D/A174V/A182V/D101N/D185E/E176A/E190D/L180R/Q94H/R68K/S129P/T187R/V100A/V91M/W191G)
# assay method text: MHC binding assay: UV-ligand exchange, ELISA of stabilized MHC complexes (peptide exchange yield)
# run conditions: binding to HLA-A*01:01, UV-ligand exchange
measure name: Peptide exchange

- substance: "265 (LSDIDSRYI; listed as Homo sapiens) [compound 265]"
  measure name: "Peptide exchange"
  reported measurement: "++ (>20% = ++)"
- substance: "45 (NLDPNKIY; listed as Homo sapiens) [compound 45]"
  measure name: "Peptide exchange"
  reported measurement: "+ (>10% =+)"
- substance: "336 (ATNIQLNIDTY; listed as Homo sapiens) [compound 336]"
  measure name: "Peptide exchange"
  reported measurement: "+++ (>50 = +++)"
- substance: "377 (YADPSANRDLL; listed as Homo sapiens) [compound 377]"
  measure name: "Peptide exchange"
  reported measurement: "++ (>20% = ++)"
- substance: "134 (SAPSSSGSPLY; listed as Homo sapiens) [compound 134]"
  measure name: "Peptide exchange"
  reported measurement: "++ (>20% = ++)"
- substance: "242 (GTNLPTLLW; listed as Homo sapiens) [compound 242]"
  measure name: "Peptide exchange"
  reported measurement: "+ (>10% =+)"
- substance: "71 (LTDSTTRTTY; listed as Homo sapiens) [compound 71]"
  measure name: "Peptide exchange"
  reported measurement: "+++ (>50 = +++)"
- substance: "17 (ASWAVLCYY; listed as Homo sapiens) [compound 17]"
  measure name: "Peptide exchange"
  reported measurement: "+++ (>50 = +++)"

----------
# system under test: HLA-A*01:01 (Homo sapiens, UniProt P04439, A114D/A174V/A182V/D101N/D185E/E176A/E190D/L180R/Q94H/R68K/S129P/T187R/V100A/V91M/W191G)
# assay method text: MHC binding assay: UV-ligand exchange, ELISA of stabilized MHC complexes (peptide exchange yield)
# run conditions: binding to HLA-A*01:01, UV-ligand exchange

- substance: "262 (NVKHFLNDLY; listed as Homo sapiens) [compound 262]"
  Peptide exchange: "+++ (>50 = +++)"
- substance: "69 (QSLPEFGLTYY; listed as Homo sapiens) [compound 69]"
  Peptide exchange: "++ (>20% = ++)"
- substance: "67 (NVDQNQNSY; listed as Homo sapiens) [compound 67]"
  Peptide exchange: "+++ (>50 = +++)"
- substance: "203 (LSQDELSKF; listed as Homo sapiens) [compound 203]"
  Peptide exchange: "++ (>20% = ++)"
- substance: "220 (DVERIKDTY; listed as Homo sapiens) [compound 220]"
  Peptide exchange: "++ (>20% = ++)"

----------
# system under test: HLA-A*01:01 (Homo sapiens, UniProt P04439, A114D/A174V/A182V/D101N/D185E/E176A/E190D/L180R/Q94H/R68K/S129P/T187R/V100A/V91M/W191G)
# assay method text: MHC binding assay: UV-ligand exchange, ELISA of stabilized MHC complexes (peptide exchange yield)
# run conditions: binding to HLA-A*01:01, UV-ligand exchange

- substance: "360 (RFDDINQEF; listed as Homo sapiens) [compound 360]"
  Peptide exchange: "+ (>10% =+)"
- substance: "103 (ITDTLIHLM; listed as Homo sapiens) [compound 103]"
  Peptide exchange: "+++ (>50 = +++)"
- substance: "371 (WSDSTSQTIY; listed as Homo sapiens) [compound 371]"
  Peptide exchange: "++++ (>75% = ++++)"
- substance: "342 (QTYMDGLLHY; listed as Homo sapiens) [compound 342]"
  Peptide exchange: "++++ (>75% = ++++)"
- substance: "144 (RTIEGDFLW; listed as Homo sapiens) [compound 144]"
  Peptide exchange: "++ (>20% = ++)"
- substance: "77 (FTSDTGLEY; listed as Homo sapiens) [compound 77]"
  Peptide exchange: "++++ (>75% = ++++)"
- substance: "13 (NTHTGTRPY; listed as Homo sapiens) [compound 13]"
  Peptide exchange: "++ (>20% = ++)"
- substance: "281 (YPDLSELLM; listed as Homo sapiens) [compound 281]"
  Peptide exchange: "++ (>20% = ++)"
- substance: "291 (TSDVTGSLTY; listed as Homo sapiens) [compound 291]"
  Peptide exchange: "++++ (>75% = ++++)"
- substance: "162 (IADNPQLSFY; listed as Homo sapiens) [compound 162]"
  Peptide exchange: "++++ (>75% = ++++)"
- substance: "25 (AMMQEAQLAY; listed as Homo sapiens) [compound 25]"
  Peptide exchange: "+++ (>50 = +++)"
- substance: "237 (AQEAAVFLTLY; listed as Homo sapiens) [compound 237]"
  Peptide exchange: "+++ (>50 = +++)"
- substance: "229 (MTDVFIDY; listed as Homo sapiens) [compound 229]"
  Peptide exchange: "+++ (>50 = +++)"
- substance: "310 (KAFQELGVRY; listed as Homo sapiens) [compound 310]"
  Peptide exchange: "++ (>20% = ++)"
- substance: "215 (DTLEAATSLY; listed as Homo sapiens) [compound 215]"
  Peptide exchange: "++ (>20% = ++)"
- substance: "258 (RPSSVLTIY; listed as Homo sapiens) [compound 258]"
  Peptide exchange: "+++ (>50 = +++)"
- substance: "157 (GLIEVVTGY; listed as Homo sapiens) [compound 157]"
  Peptide exchange: "++++ (>75% = ++++)"
- substance: "337 (FTESNQYNIY; listed as Homo sapiens) [compound 337]"
  Peptide exchange: "++++ (>75% = ++++)"
- substance: "391 (GSNPARYEF; listed as Homo sapiens) [compound 391]"
  Peptide exchange: "++ (>20% = ++)"
- substance: "31 (VSDHLQAGMLGQY; listed as Homo sapiens) [compound 31]"
  Peptide exchange: "+++ (>50 = +++)"
- substance: "110 (IGDKVDAVY; listed as Homo sapiens) [compound 110]"
  Peptide exchange: "++ (>20% = ++)"
- substance: "231 (LLPLLVMAY; listed as Homo sapiens) [compound 231]"
  Peptide exchange: "++ (>20% = ++)"
- substance: "83 (DTEFHGGLHY; listed as Homo sapiens) [compound 83]"
  Peptide exchange: "+++ (>50 = +++)"
- substance: "64 (TSEISQNALMYY; listed as Homo sapiens) [compound 64]"
  Peptide exchange: "+++ (>50 = +++)"
- substance: "349 (HLLSVSLYY; listed as Homo sapiens) [compound 349]"
  Peptide exchange: "+ (>10% =+)"
- substance: "172 (FSEPFHLIV; listed as Homo sapiens) [compound 172]"
  Peptide exchange: "+++ (>50 = +++)"
- substance: "44 (IPSFNEMVY; listed as Homo sapiens) [compound 44]"
  Peptide exchange: "++ (>20% = ++)"
- substance: "108 (NSNLKFLEV; listed as Homo sapiens) [compound 108]"
  Peptide exchange: "++ (>20% = ++)"
- substance: "127 (VPFNLITEY; listed as Homo sapiens) [compound 127]"
  Peptide exchange: "+ (>10% =+)"
- substance: "87 (AFDDIATYF; listed as Homo sapiens) [compound 87]"
  Peptide exchange: "++ (>20% = ++)"
- substance: "73 (STDSASYY; listed as Homo sapiens) [compound 73]"
  Peptide exchange: "++++ (>75% = ++++)"
- substance: "84 (ESEMIKFASYY; listed as Homo sapiens) [compound 84]"
  Peptide exchange: "++++ (>75% = ++++)"
- substance: "247 (SMIRVGTNY; listed as Homo sapiens) [compound 247]"
  Peptide exchange: "++ (>20% = ++)"
- substance: "152 (YLEDRPLSQ; listed as Homo sapiens) [compound 152]"
  Peptide exchange: "++ (>20% = ++)"
- substance: "159 (RQAPGPARDY; listed as Homo sapiens) [compound 159]"
  Peptide exchange: "++ (>20% = ++)"
- substance: "131 (LEDGIEQSAY; listed as Homo sapiens) [compound 131]"
  Peptide exchange: "++ (>20% = ++)"
- substance: "150 (FTTLSDLQTNMA; listed as Homo sapiens) [compound 150]"
  Peptide exchange: "++ (>20% = ++)"
- substance: "250 (GYVCNACGLY; listed as Homo sapiens) [compound 250]"
  Peptide exchange: "++ (>20% = ++)"
